Incidence rate listing for selected compounds.
System: paw plantar skin of rats
Assay: Rat models with hand-foot skin reaction, topical ointment (Example 22)
Type: in vivo, SD rats
Conditions: erlotinib 70 mg/kg; 1% compound ointment on left paw; left paw; 30 days
readout-kind: Incidence rate

In [3]: df
Out[3]:
                                   compound  value_reported
0  NC(=O)C1CCCc2c1[nH]c1ccc(Cl)cc21 (stereo not shown)      3/12 (25%)
1      NC(=O)[C@H]1CCCc2c1[nH]c1ccc(Cl)cc21      3/12 (25%)
2  NC(=O)C1c2[nH]c3ccc(Cl)cc3c2C2CCC1C2 (stereo not shown)      2/12 (17%)
3   CN1CC[C@H](C(N)=O)c2[nH]c3ccc(Cl)cc3c21      2/12 (17%)

* * *

System: paw plantar skin of rats
Test: Rat models with hand-foot skin reaction, topical ointment (Example 22)
Format: in vivo, SD rats
Conditions: erlotinib 70 mg/kg; 3% compound ointment on left paw; left paw; 30 days
Incidence rate listing for selected compounds.
readout-kind: Incidence rate

In [3]: df
Out[3]:
                                   compound  value_reported
0      NC(=O)[C@H]1CCCc2c1[nH]c1ccc(Cl)cc21      2/12 (17%)
1   CN1CC[C@H](C(N)=O)c2[nH]c3ccc(Cl)cc3c21       1/12 (8%)
2  NC(=O)C1CCCc2c1[nH]c1ccc(Cl)cc21 (stereo not shown)      2/12 (17%)
3  NC(=O)C1c2[nH]c3ccc(Cl)cc3c2C2CCC1C2 (stereo not shown)      2/12 (17%)

* * *

Test system: HaCat cells
Assay: m6A methylation level of human HaCat keratinocytes, EpiQuik m6A RNA methylation quantification kit (Example 20)
Assay type: cell-based
Conditions: HaCat cells, 50 nM osimertinib + 400 nM test compound, 24 hours
m6A fold change relative to control group 1 listing for selected compounds.
readout-kind: m6A fold change relative to control group 1

In [3]: df
Out[3]:
                                   compound  value_reported
0  NC(=O)C1CCCc2c1[nH]c1ccc(Cl)cc21 (stereo not shown)             2.2
1  NC(=O)C1CCCc2c1[nH]c1ccc(Cl)c(F)c21 (stereo not shown)             2.9
2     NC(=O)[C@@H]1CCCc2c1[nH]c1ccc(Cl)cc21             3.2
3  NC(=O)C1CCCc2c1[nH]c1cc(F)c(Cl)c(F)c21 (stereo not shown)             4.2
4  CN1CCC(C(N)=O)c2[nH]c3ccc(Cl)cc3c21 (stereo not shown)             2.1
5  NC(=O)C1c2[nH]c3ccc(Cl)cc3c2C2CCC1C2 (stereo not shown) [Compound 5b]             5.0
6  NC(=O)C1CCCc2c1[nH]c1cc(F)c(Cl)cc21 (stereo not shown)             3.1
7  NC(=O)C1c2[nH]c3ccc(Cl)cc3c2C2CCC1C2 (stereo not shown) [Compound 5a]             1.2
8  NC(=O)C1CCC(F)c2c1[nH]c1ccc(Cl)cc21 (stereo not shown)             2.9
9  CC1CCC(C(N)=O)c2[nH]c3ccc(Cl)cc3c21 (stereo not shown)             3.5

* * *

System: HaCat cells
Assay: m6A methylation level of human HaCat keratinocytes, EpiQuik m6A RNA methylation quantification kit (Example 20)
Assay type: cell-based
Conditions: HaCat cells, 50 nM osimertinib + 400 nM test compound, 24 hours
readout-kind: m6A fold change relative to control group 1

>>> print(df.to_string())
                                   compound  value_reported
0  NC(=O)C1CCCc2c1[nH]c1ccc(F)cc21 (stereo not shown) [Compound 1]             3.4
1  NC(=O)C1c2[nH]c3ccc(Cl)cc3c2C2CCC1C2 (stereo not shown) [Compound 5]             3.1
2  NC(=O)c1cccnc1 [Nicotinamide, nicotinamide]             5.0
3  CN1CC[C@H](C(N)=O)c2[nH]c3ccc(Cl)cc3c21 [Compound 8b]             1.0
4  CN1CC[C@@H](C(N)=O)c2[nH]c3ccc(Cl)cc3c21 [Compound 8a]             3.2
5  NC(=O)[C@H]1CCCc2c1[nH]c1ccc(Cl)cc21 [Compound 2b]             1.2
6  NC(=O)C1CCCc2c1[nH]c1cc(Nc3ccccc3)c(Cl)cc21 (stereo not shown) [Compound 9]             4.0

* * *

Test system: HaCat cells
Assay: m6A methylation level of human HaCat keratinocytes, EpiQuik m6A RNA methylation quantification kit (Example 20)
Type: cell-based
Conditions: HaCat cells, 50 nM capecitabine + 400 nM test compound, 24 hours
readout-kind: m6A fold change relative to control group 1

                                   molecule  value_reported
0  NC(=O)C1CCCc2c1[nH]c1cc(Nc3ccccc3)c(Cl)cc21 (stereo not shown)             3.9
1  CC1CCC(C(N)=O)c2[nH]c3ccc(Cl)cc3c21 (stereo not shown)             3.2
2  CN1CCC(C(N)=O)c2[nH]c3ccc(Cl)cc3c21 (stereo not shown)             1.7
3  NC(=O)C1c2[nH]c3ccc(Cl)cc3c2C2CCC1C2 (stereo not shown) [Compound 5b]             4.8
4   CN1CC[C@H](C(N)=O)c2[nH]c3ccc(Cl)cc3c21             1.0
5  NC(=O)C1CCCc2c1[nH]c1ccc(Cl)cc21 (stereo not shown)             2.3
6  NC(=O)C1CCC(F)c2c1[nH]c1ccc(Cl)cc21 (stereo not shown)             3.9

* * *

System: HaCat cells
Assay: m6A methylation level of human HaCat keratinocytes, EpiQuik m6A RNA methylation quantification kit (Example 20)
Format: cell-based
Details: HaCat cells, 50 nM capecitabine + 400 nM test compound, 24 hours
m6A fold change relative to control group 1 listing for selected molecules.
readout-kind: m6A fold change relative to control group 1

>>> print(df.to_string())
                                   molecule  value_reported
0  NC(=O)[C@H]1CCCc2c1[nH]c1ccc(Cl)cc21 [Compound 2b]             1.1
1  NC(=O)C1CCCc2c1[nH]c1cc(F)c(Cl)cc21 (stereo not shown) [Compound 3b]             2.9
2  NC(=O)c1cccnc1 [Nicotinamide, nicotinamide]             4.5
3  NC(=O)C1CCCc2c1[nH]c1cc(F)c(Cl)c(F)c21 (stereo not shown) [Compound 4]             3.2
4  NC(=O)[C@@H]1CCCc2c1[nH]c1ccc(Cl)cc21 [Compound 2a]             3.5
5  NC(=O)C1CCCc2c1[nH]c1ccc(F)cc21 (stereo not shown) [Compound 1]             3.0
6  CN1CC[C@@H](C(N)=O)c2[nH]c3ccc(Cl)cc3c21 [Compound 8a]             2.4
7  NC(=O)C1c2[nH]c3ccc(Cl)cc3c2C2CCC1C2 (stereo not shown) [Compound 5a]             1.2
8  NC(=O)C1c2[nH]c3ccc(Cl)cc3c2C2CCC1C2 (stereo not shown) [Compound 5]             3.0
9  NC(=O)C1CCCc2c1[nH]c1ccc(Cl)c(F)c21 (stereo not shown) [Compound 3a]             2.8

* * *

Tested on: paw plantar skin of rats
Assay: Rat models with hand-foot skin reaction, topical ointment (Example 22)
Format: in vivo, SD rats
Conditions: sorafenib 100 mg/kg; 1% compound ointment on left paw; right paw (blank matrix ointment); 30 days
Incidence rate listing for selected compounds.
readout-kind: Incidence rate

>>> df
                                   compound    readout_kind  value_reported
0  CN1CC[C@H](C(N)=O)c2[nH]c3ccc(Cl)cc3c21 [Compound 8b]  Incidence rate      8/12 (67%)
1  NC(=O)[C@H]1CCCc2c1[nH]c1ccc(Cl)cc21 [Compound 2b]  Incidence rate      9/12 (75%)
2  NC(=O)C1CCCc2c1[nH]c1ccc(Cl)cc21 (stereo not shown) [Compound 2]  Incidence rate      8/12 (67%)
3  NC(=O)C1c2[nH]c3ccc(Cl)cc3c2C2CCC1C2 (stereo not shown) [Compound 5a]  Incidence rate     10/12 (83%)

* * *

System: paw plantar skin of rats
Assay: Rat models with hand-foot skin reaction, topical ointment (Example 22)
Format: in vivo, SD rats
Conditions: erlotinib 70 mg/kg; 10% compound ointment on left paw; right paw (blank matrix ointment); 30 days
Procedure: After adaptive feeding for one week, SD rats (with a body weight of approximately 200 g) were randomly divided into groups according to the body weight, with 12 rats in each group. Modeling drugs (including sorafenib, erlotinib, afatinib, and osimertinib) were respectively dissolved in a solution containing 5% of DMSO, 45% of PEG400, and 50% of H2O, and the modeling drugs were diluted to required concentrations and then administered once daily by gavage at doses shown in Table 3. […]
readout-kind: Incidence rate

>>> df
                                   compound    readout_kind  value_reported
0      NC(=O)[C@H]1CCCc2c1[nH]c1ccc(Cl)cc21  Incidence rate      4/12 (33%)
1  NC(=O)C1CCCc2c1[nH]c1ccc(Cl)cc21 (stereo not shown)  Incidence rate      4/12 (33%)
2   CN1CC[C@H](C(N)=O)c2[nH]c3ccc(Cl)cc3c21  Incidence rate       0/12 (0%)
3  NC(=O)C1c2[nH]c3ccc(Cl)cc3c2C2CCC1C2 (stereo not shown)  Incidence rate       0/12 (0%)
